src = the supplement of paper PMC10201428

Test system: VchCAST RNA-guided transposition machinery (E. coli BL21(DE3) host, lacZ target)
Experiment: relative integration efficiency (T-LR orientation) vs wild-type transposon end (log2 (normalized fold change)); transposon end mutated: right end (5 bp flank + 75 bp right end); higher = more efficient transposition
As shown below, each of these sequences has a reported relative integration efficiency (log2) value.
property name: relative integration efficiency (log2)

[
  {
    "biopolymer sequence": "ACATTAGTCGATACAACCATAAAATGATAATTACACCCATAAATTGATAATTATCACACCCAATTTAACTATAACGCTCTGATCATAGTCAGACCAACATTGCTACGACCCGTATTCGCACCGACAC",
    "property name": "relative integration efficiency (log2)",
    "quantitative readout": -5.9
  },
  {
    "biopolymer sequence": "ACATTTGTTGATACAACCATAAAATGATCACCCATAAATTGATAATTATCACACCCATAAATTGATATTGCCTCTGATCATAGTCAGACCAACATTGCTACGACCCGTATTCGCACCGACACTGACT",
    "property name": "relative integration efficiency (log2)",
    "quantitative readout": -0.722
  },
  {
    "biopolymer sequence": "ACATTTGTTGATACAACCATTAAATAATAATTCCACCCATAAATTGATAATTATCACACCCAATTTAACTATAACGCTCTGATCATAGTCAGACCAACATTGCTACGACCCGTATTCGCACCGACAC",
    "property name": "relative integration efficiency (log2)",
    "quantitative readout": 1.55
  },
  {
    "biopolymer sequence": "ACATTTGTTGATACTACCATATAATGATAATAACACCCATAAAATGATAATTATCACACCCAATTTAACTATAACGCTCTGATCATAGTCAGACCAACATTGCTACGACCCGTATTCGCACCGACAC",
    "property name": "relative integration efficiency (log2)",
    "quantitative readout": 1.9
  },
  {
    "biopolymer sequence": "ACATTTGTTGATACAACCATAAAATGATAATTACACCCATAAATTGATAATTATCACACCCATAAATTGATATCTCTGATCATAGTCAGACCAACATTGCTACGACCCGTATTCGCACCGACACTGA",
    "property name": "relative integration efficiency (log2)",
    "quantitative readout": -0.209
  }
]

====

System: VchCAST RNA-guided transposition machinery (E. coli BL21(DE3) host, lacZ target)
Test: relative integration efficiency (T-LR orientation) vs wild-type transposon end (log2 (normalized fold change)); transposon end mutated: right end (5 bp flank + 75 bp right end); higher = more efficient transposition
As shown below, each of these sequences has a reported relative integration efficiency (log2) value.

[
  {
    "biopolymer sequence": "ACATTTGTTGATACCACCATAAAATGATAATTACACCCCTACATTGATAATTATCACACCCAATTTAACTATAACGCTCTGATCATAGTCAGACCAACATTGCTACGACCCGTATTCGCACCGACAC",
    "system name": "VchCAST RNA-guided transposition machinery (E. coli BL21(DE3) host, lacZ target)",
    "relative integration efficiency (log2)": -0.284
  },
  {
    "biopolymer sequence": "ACATTTGTGGATACAACCCTAAAATGATAATTACACCCATAAATTGATAATTATCACACCCAATTTAACTATAACGCTCTGATCATAGTCAGACCAACATTGCTACGACCCGTATTCGCACCGACAC",
    "system name": "VchCAST RNA-guided transposition machinery (E. coli BL21(DE3) host, lacZ target)",
    "relative integration efficiency (log2)": 1.32
  },
  {
    "biopolymer sequence": "ACATTTGTTGATACAACCATAAAATCATCATTACACCCATCAATTGATAATTATCACACCCCATTTAACTATAACGCTCTGATCATAGTCAGACCAACATTGCTACGACCCGTATTCGCACCGACAC",
    "system name": "VchCAST RNA-guided transposition machinery (E. coli BL21(DE3) host, lacZ target)",
    "relative integration efficiency (log2)": -1.24
  },
  {
    "biopolymer sequence": "ACATTGGTTCATACAACCATAAAATGATAATTACACCCATAAATGGATAATTATCACACCCAATTTAACTATAACGCTCTGATCATAGTCAGACCAACATTGCTACGACCCGTATTCGCACCGACAC",
    "system name": "VchCAST RNA-guided transposition machinery (E. coli BL21(DE3) host, lacZ target)",
    "relative integration efficiency (log2)": -5.92
  },
  {
    "biopolymer sequence": "ACATTTGTTGATAACCAACGCCCCGTCGCCGGCACAAACGCCCGGTCGCCGGCTCACACCCATAAATTGATATTGCCTCTGATCATAGTCAGACCAACATTGCTACGACCCGTATTCGCACCGACAC",
    "system name": "VchCAST RNA-guided transposition machinery (E. coli BL21(DE3) host, lacZ target)",
    "relative integration efficiency (log2)": "< -10"
  }
]
